- experimental target: Aromatase (Homo sapiens, UniProt P11511)
- Sequence (P11511 whole entry): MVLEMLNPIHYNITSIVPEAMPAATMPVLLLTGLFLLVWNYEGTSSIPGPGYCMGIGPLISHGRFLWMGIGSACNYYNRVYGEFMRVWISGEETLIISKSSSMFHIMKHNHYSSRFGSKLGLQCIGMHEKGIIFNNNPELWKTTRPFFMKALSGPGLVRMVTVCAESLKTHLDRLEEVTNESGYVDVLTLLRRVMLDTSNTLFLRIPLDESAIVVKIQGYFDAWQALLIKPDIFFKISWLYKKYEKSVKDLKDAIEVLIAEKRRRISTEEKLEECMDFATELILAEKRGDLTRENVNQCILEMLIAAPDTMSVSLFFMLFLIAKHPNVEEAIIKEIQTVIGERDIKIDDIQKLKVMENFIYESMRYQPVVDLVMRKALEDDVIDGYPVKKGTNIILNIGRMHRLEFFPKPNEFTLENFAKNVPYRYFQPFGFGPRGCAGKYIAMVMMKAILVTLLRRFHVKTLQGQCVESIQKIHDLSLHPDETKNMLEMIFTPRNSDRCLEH
- procedure summary: Inhibition of Cytochrome P450 19A1 at 0.25 uM
experimental readout: inhibition at 0.25 µM

structure_notation=COc1ccc(S[C@@H]2CC3=CC(=O)CC[C@]3(C)[C@H]3CC[C@]4(C)C(=O)CC[C@H]4[C@H]23)cc1 experimental_readout="inhibition at 0.25 µM" measured_value=7.93%
structure_notation=C[C@]12CCC(=O)C=C1C[C@@H](Sc1ccccc1)[C@@H]1[C@@H]2CC[C@]2(C)C(=O)CC[C@@H]12 experimental_readout="inhibition at 0.25 µM" measured_value=62.7%
structure_notation=Cc1ccc(S[C@@H]2CC3=CC(=O)CC[C@]3(C)[C@H]3CC[C@]4(C)C(=O)CC[C@H]4[C@H]23)cc1 experimental_readout="inhibition at 0.25 µM" measured_value=7.83%
structure_notation=C[C@]12CCC(=O)C=C1C[C@@H](Sc1ccc(I)cc1)[C@@H]1[C@@H]2CC[C@]2(C)C(=O)CC[C@@H]12 experimental_readout="inhibition at 0.25 µM" measured_value=45%
structure_notation=CCN(CC)c1ccc(S[C@@H]2CC3=CC(=O)CC[C@]3(C)[C@H]3CC[C@]4(C)C(=O)CC[C@H]4[C@H]23)cc1 experimental_readout="inhibition at 0.25 µM" measured_value=11.7%
structure_notation=C[C@]12CCC(=O)C=C1C[C@@H](SC1CCCCC1)[C@@H]1[C@@H]2CC[C@]2(C)C(=O)CC[C@@H]12 experimental_readout="inhibition at 0.25 µM" measured_value=18.5%

###

- experimental target: Aromatase (Homo sapiens, UniProt P11511)
- procedure summary: Inhibition of Cytochrome P450 19A1 at 1.25 uM
Label fulfilled when inhibition at 1.25 µM >= 80%; otherwise not fulfilled.

structure_notation=C[C@]12CCC(=O)C=C1C[C@@H](Sc1ccc(F)cc1)[C@@H]1[C@@H]2CC[C@]2(C)C(=O)CC[C@@H]12 assigned_class="not fulfilled"
structure_notation=C[C@]12CCC(=O)C=C1C[C@@H](Sc1ccc(I)cc1)[C@@H]1[C@@H]2CC[C@]2(C)C(=O)CC[C@@H]12 assigned_class=fulfilled
structure_notation=C[C@]12CCC(=O)C=C1C[C@@H](SC1CCCCC1)[C@@H]1[C@@H]2CC[C@]2(C)C(=O)CC[C@@H]12 assigned_class="not fulfilled"
structure_notation=COc1ccc(S[C@@H]2CC3=CC(=O)CC[C@]3(C)[C@H]3CC[C@]4(C)C(=O)CC[C@H]4[C@H]23)cc1 assigned_class="not fulfilled"
structure_notation=C[C@]12CCC(=O)C=C1C[C@@H](Sc1ccc(Cl)cc1)[C@@H]1[C@@H]2CC[C@]2(C)C(=O)CC[C@@H]12 assigned_class=fulfilled
structure_notation=C[C@]12CCC(=O)C=C1C[C@@H](Sc1cccc(N)c1)[C@@H]1[C@@H]2CC[C@]2(C)C(=O)CC[C@@H]12 assigned_class="not fulfilled"

###

Reported inhibition at 0.25 µM values follow for various compounds
- experimental target: Aromatase (Homo sapiens, UniProt P11511)
- procedure summary: Inhibition of Cytochrome P450 19A1 at 0.25 uM
experimental readout: inhibition at 0.25 µM (%)

structure_notation=CC(=O)c1ccc(S[C@@H]2CC3=CC(=O)CC[C@]3(C)[C@H]3CC[C@]4(C)C(=O)CC[C@H]4[C@H]23)cc1 experimental_readout="inhibition at 0.25 µM" measured_value=55.7
structure_notation=C[C@]12CCC(=O)C=C1C[C@@H](Sc1ccc(Br)cc1)[C@@H]1[C@@H]2CC[C@]2(C)C(=O)CC[C@@H]12 experimental_readout="inhibition at 0.25 µM" measured_value=47.3
structure_notation=C[C@]12CCC(=O)C=C1C[C@@H](Sc1ccc(F)cc1)[C@@H]1[C@@H]2CC[C@]2(C)C(=O)CC[C@@H]12 experimental_readout="inhibition at 0.25 µM" measured_value=55.3
structure_notation=C[C@]12CCC(=O)C=C1C[C@@H](Sc1ccc(N)cc1)[C@@H]1[C@@H]2CC[C@]2(C)C(=O)CC[C@@H]12 experimental_readout="inhibition at 0.25 µM" measured_value=51.6
structure_notation=C[C@]12CCC(=O)C=C1C[C@@H](Sc1ccc(Cl)cc1)[C@@H]1[C@@H]2CC[C@]2(C)C(=O)CC[C@@H]12 experimental_readout="inhibition at 0.25 µM" measured_value=56.5
structure_notation=C[C@]12CCC(=O)C=C1C[C@@H](Sc1cccc(N)c1)[C@@H]1[C@@H]2CC[C@]2(C)C(=O)CC[C@@H]12 experimental_readout="inhibition at 0.25 µM" measured_value=39.9
structure_notation=C[C@]12CCC(=O)C=C1C[C@@H](SCc1ccccc1)[C@@H]1[C@@H]2CC[C@]2(C)C(=O)CC[C@@H]12 experimental_readout="inhibition at 0.25 µM" measured_value=33.5

###

- experimental target: Aromatase (Homo sapiens)
- procedure summary: Inhibition of Cytochrome P450 19A1 at 1.25 uM
Label 1 when inhibition at 1.25 µM >= 70%; otherwise -1.

structure_notation=C[C@]12CCC(=O)C=C1C[C@@H](Sc1ccc(N)cc1)[C@@H]1[C@@H]2CC[C@]2(C)C(=O)CC[C@@H]12 assigned_class=1
structure_notation=CC(=O)c1ccc(S[C@@H]2CC3=CC(=O)CC[C@]3(C)[C@H]3CC[C@]4(C)C(=O)CC[C@H]4[C@H]23)cc1 assigned_class=1
structure_notation=CCN(CC)c1ccc(S[C@@H]2CC3=CC(=O)CC[C@]3(C)[C@H]3CC[C@]4(C)C(=O)CC[C@H]4[C@H]23)cc1 assigned_class=-1
structure_notation=C[C@]12CCC(=O)C=C1C[C@@H](Sc1ccccc1)[C@@H]1[C@@H]2CC[C@]2(C)C(=O)CC[C@@H]12 assigned_class=-1
structure_notation=Cc1ccc(S[C@@H]2CC3=CC(=O)CC[C@]3(C)[C@H]3CC[C@]4(C)C(=O)CC[C@H]4[C@H]23)cc1 assigned_class=-1
